molecular target: human S1P1 (Homo sapiens (Human)); assay: S1P1 binding assay (33P-S1P radioligand competition, CHO cell membranes); settings: phosphate examples; read-out: S1P1 Binding
Sequence (P21453 whole entry): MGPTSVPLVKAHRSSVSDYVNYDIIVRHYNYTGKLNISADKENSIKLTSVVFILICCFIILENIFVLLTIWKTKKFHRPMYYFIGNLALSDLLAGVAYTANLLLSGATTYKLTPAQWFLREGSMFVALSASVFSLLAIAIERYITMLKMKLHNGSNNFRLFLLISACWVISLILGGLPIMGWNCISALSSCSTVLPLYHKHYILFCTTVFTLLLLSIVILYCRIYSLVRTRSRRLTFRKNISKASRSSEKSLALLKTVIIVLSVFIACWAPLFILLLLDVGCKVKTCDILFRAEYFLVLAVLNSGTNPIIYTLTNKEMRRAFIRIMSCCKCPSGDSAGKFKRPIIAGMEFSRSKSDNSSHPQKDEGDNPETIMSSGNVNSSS
Quantity kind: IC50

A selection of reference data follows.
// IC50 lookup, key: N[C@]1(COP(=O)(O)O)CC[C@H](c2ccc3c(c2)CC[C@H](COc2ccccc2)C3)C1
< 0.01 µM

Quick check: IC50 of CCCCOC[C@@H]1COc2cc([C@@H]3CC[C@](N)(COP(=O)(O)O)C3)ccc2O1 ?
0.01 to 0.1 µM

Data request, read-out IC50, for N[C@]1(COP(=O)(O)O)CC[C@H](c2ccc3c(c2)CC[C@@H](/C=C/C2CCOCC2)C3)C1
0.01 to 0.1 µM

Form field: reported IC50 of CCCC/C=C/[C@@H]1CCc2cc([C@H]3CC[C@](N)(COP(=O)(O)O)C3)ccc2C1 [compound 636]
0.01 to 0.1 µM

Which IC50 value is on record for CCCCCCN1CCc2cc([C@@H]3CC[C@](N)(COP(=O)(O)O)C3)ccc2C1=O ?
0.01 to 0.1 µM

May I ask what IC50 has been recorded for CC/C=C\COC[C@@H]1CCc2cc([C@H]3CC[C@](N)(COP(=O)(O)O)C3)ccc2C1 ?
< 0.01 µM

// query IC50 value for entry CC(C)=CCOCCO[C@@H]1CCc2cc(C3CCC(N)(COP(=O)(O)O)C3)ccc2C1 (single isomer, unassigned)
0.01 to 0.1 µM

Param item = CCOc1ccc(C[C@@H]2CCc3cc([C@H]4CC[C@](N)(COP(=O)(O)O)C4)ccc3C2)cc1 ; retrieve measured IC50.
0.1 to 1 µM

Query: IC50; subject: CCC/C=C\CO[C@H]1CCc2cc([C@H]3CC[C@](N)(COP(=O)(O)O)C3)ccc2C1
< 0.01 µM

IC50 lookup needed for CCCCC(C)(C)C(=O)OC1CCc2cc([C@H]3CC[C@@](N)(COP(=O)(O)O)C3)ccc2C1 (stereo partly drawn) , thanks.
1 to 10 µM

Switching to the query record.
Recorded IC50 of COc1cc(OC[C@@H]2CCc3cc([C@H]4CC[C@](N)(COP(=O)(O)O)C4)ccc3C2)ccc1F , please.
0.01 to 0.1 µM

----------
molecular target: human S1P1 (Homo sapiens (Human)); experiment: S1P1 binding assay (33P-S1P radioligand competition, CHO cell membranes); conditions: phosphate examples; read-out: S1P1 Binding
pIC50: −log10 of the molar value.
Quantity kind: pIC50

Would you please look over these solved cases?
What does the data say about its pIC50? Entry: COc1cccc(F)c1CC[C@H]1CCc2cc([C@@H]3CC[C@@](N)(COP(=O)(O)O)C3)ccc2C1 (single isomer, unassigned) [compound 607]
6.00 to 7.00

Using the record for CC/C=C\CC[C@@H]1CCc2cc([C@H]3CC[C@](N)(COP(=O)(O)O)C3)ccc2C1 [compound 651] , report its pIC50.
7.00 to 8.00

Looking for the measured pIC50 of Cn1nc(OC[C@@H]2CCc3cc([C@H]4CC[C@](N)(COP(=O)(O)O)C4)ccc3C2)cc1C(F)(F)F [compound 496] , can you help?
> 8.00

Consider the compound CN(C)C(=O)c1cccc(OC[C@@H]2CCc3cc([C@H]4CC[C@](N)(COP(=O)(O)O)C4)ccc3C2)c1 [compound 495] and give its measured pIC50.
7.00 to 8.00

If you can, please state the reported pIC50 value of CCCSCC[C@H]1CCc2cc([C@H]3CC[C@](N)(COP(=O)(O)O)C3)ccc2C1 [compound 534] .
> 8.00

Further cases:
Give the measured pIC50 of CCCCCC[C@H]1CCc2cc([C@H]3CC[C@](N)(COP(=O)(O)O)C3)c(I)cc2C1 [compound 620] .
7.00 to 8.00

Query: pIC50; subject: COc1ccc(SC[C@@H]2CCc3cc([C@H]4CC[C@](N)(COP(=O)(O)O)C4)ccc3C2)cc1 [compound 529]
> 8.00

Any idea what pIC50 was measured for CC(C)CSC[C@H]1CCc2cc([C@H]3CC[C@](N)(COP(=O)(O)O)C3)ccc2C1 [compound 509] ?
7.00 to 8.00

Return reported pIC50; argument: CCC/C=C\CO[C@@H]1CCc2cc([C@H]3CC[C@](N)(COP(=O)(O)O)C3)ccc2C1 [compound 438]
> 8.00

Name the recorded pIC50 for COC(C)CCCCC1CCc2cc([C@H]3CC[C@](N)(COP(=O)(O)O)C3)ccc2C1 (single isomer, unassigned) [compound 611] .
> 8.00

Please look up its pIC50: CCCC[S+]([O-])C[C@@H]1CCc2cc([C@H]3CC[C@](N)(COP(=O)(O)O)C3)ccc2C1 (some centres unmarked) [compound 668]
> 8.00
